biological target: Cytochrome P450 3A4 (Homo sapiens); test: Cytochrome panel assay with activity outcomes; settings: recombinant CYP, pro-luciferin dealkylation, luminescence, p450-cyp3a4; series mostly up to 57.1 µM
Among all 16,000 compounds or so, about 5,100 (32%) were called active. About 25% were inconclusive and are not listed. The list shows a part of the results.
parameter.measured: AC50

* Cc1ccc(C2CC(=O)C(C=NCCN3CCN(C(=O)Cc4ccccc4)CC3)=C(O)C2)cc1 (stereo unspecified) | 3.16 µM (active)
* C[C@H](N)c1cccc(Cl)c1Cl | 25.1 µM (active)
* CC(C)(C)c1cc(C=C(C#N)C#N)cc(C(C)(C)C)c1O | 3.16 µM (active)
* O=S(=O)(c1ccccc1)N1CCCCC1c1cccnc1 (stereo unspecified) | 2.24 µM (active)
* O=C(Nc1ccccc1)N1CCCC2(CCN(C(=O)Oc3ccccc3)CC2)C1 | 15.8 µM (active)
* CCOC(=O)C1=C(C)OC(N)=C(C#N)C12C(=O)N(C)c1ccccc12 (stereo unspecified) | 6.31 µM (active)
* O=C(Nc1cccc(F)c1)N1CCCC2(CCN(C(=O)Oc3ccccc3)CC2)C1 | 15.8 µM (active)
* C[C@@]12C=CC(=O)C=C1CC[C@@H]1C2=CC[C@]2(C)[C@@H]1CC[C@H]2C(=O)CN1CCN(c2cc(N3CCCC3)nc(N3CCCC3)n2)CC1 | 3.16 µM (active)
* N#CC(C#N)=Cc1cc(O)c(O)c(O)c1 | 10 µM (active)
* CCCOc1ccc2[nH]cc(C3=CCNCC3)c2n1 | 2.51 µM (active)
* Cc1cc(C)c(-n2c(O)c(C=NCCN3CCOCC3)c(=O)[nH]c2=O)c(C)c1 | 25.1 µM (active)

====

biological target: Cytochrome P450 3A4 (Homo sapiens) (UniProt P08684); experiment: Cytochrome panel assay with activity outcomes; details: recombinant CYP, pro-luciferin dealkylation, luminescence, p450-cyp3a4; series mostly up to 57.1 µM; for activity, negative = inhibition: % is set by controls: 0 for no effect and ±100 for the full control effect
Sequence (P08684 whole entry, looked up): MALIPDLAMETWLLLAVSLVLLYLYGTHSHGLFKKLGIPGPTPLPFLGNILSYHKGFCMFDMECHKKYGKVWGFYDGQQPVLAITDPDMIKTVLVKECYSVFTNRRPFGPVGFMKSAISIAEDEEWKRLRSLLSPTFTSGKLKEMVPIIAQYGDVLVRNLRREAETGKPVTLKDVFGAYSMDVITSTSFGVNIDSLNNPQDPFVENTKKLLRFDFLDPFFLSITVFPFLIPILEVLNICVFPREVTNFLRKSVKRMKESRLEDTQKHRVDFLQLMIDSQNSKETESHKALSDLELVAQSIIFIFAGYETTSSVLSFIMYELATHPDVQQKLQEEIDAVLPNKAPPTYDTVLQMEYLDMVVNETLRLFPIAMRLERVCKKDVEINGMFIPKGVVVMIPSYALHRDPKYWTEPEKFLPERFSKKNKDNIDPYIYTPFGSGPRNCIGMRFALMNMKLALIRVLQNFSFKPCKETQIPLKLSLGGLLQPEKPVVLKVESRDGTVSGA
Hit rate of the full screen: of about 16,000 compounds, about 5,100 (32%) were called active. Another 25% or so got no clear call; they are omitted. This is one part of the list.
parameter.measured: activity, negative = inhibition

- c1ccc(CN2CCC3(CCNCC3)CC2)cc1: inactive
- O=C1NCN(c2ccccc2)C12CCN(CCCOc1ccc(F)cc1)CC2: inactive
- O=S(=O)(O)/C(=C\c1ccccc1)c1ccccc1 (tested in a mixture with another compound): -11.7% [at 11.4 µM] (inactive)
- Cc1ccc2c(c1)C1CN(C)CCC1N2C(=O)Nc1cccc(Cl)c1 (stereo unspecified): inactive
- COc1c2c(cc3c1OCO3)CCN(C)C2: inactive
- Cc1ccc(-c2nc3ccccc3c(=O)n2-c2ncccc2C)cc1: -6.07% [at 2.29 µM] (inactive)
- CO[C@H]1C=C2CCN(C)[C@@H]2[C@@H]2c3cc4c(cc3C(=O)O[C@H]21)OCO4: inactive
- N[C@H](CCCCCP(=O)(O)O)C(=O)O: inactive
- CCN(CC)c1ccc(/C=C2/C(=O)NC(=O)N(CC3CCCO3)C2=O)cc1 (stereo unspecified): inactive
- Cc1nc2ccccc2c(=O)n1-n1cnnc1: inactive
- CNC(=O)OCC[N+](C)(C)C: inactive

====

molecular target: Cytochrome P450 3A4 (Homo sapiens) (UniProt P08684); experiment: Cytochrome panel assay with activity outcomes; conditions: recombinant CYP, pro-luciferin dealkylation, luminescence, p450-cyp3a4; series mostly up to 57.1 µM; for activity, negative = inhibition: % is set by controls: 0 for no effect and ±100 for the full control effect
Among all 16,000 compounds or so, about 5,100 (32%) were called active. Another 25% or so got no clear call; they are omitted. Some of the results follow.
parameter.measured: activity, negative = inhibition

• CC(C)N[C@@H](C)Cc1ccc(I)cc1 = inactive
• CC[C@@]1(O)C(=O)OCc2c1cc1n(c2=O)Cc2cc3c(NC(=O)CN)cccc3nc2-1 = 0.232% [at 11.4 µM] (inactive)
• CCCN(CCC)[C@H]1CCc2c(F)ccc(O)c2C1 = inactive
• COC(=O)c1c(C)ccc2c(O)c3c(cc12)C(=O)c1c2c(cc(O)c1C3=O)[C@@]1(C)O[C@@](C)(O2)[C@@H](O)[C@H](N(C)C)[C@H]1O = -1.78% [at 11.4 µM] (inactive)
